Reference source: PubChem BioAssay AID2060513

Quick reference: viability, T/C of the listed items.
- Tested on: 299254-011-R-J1-PDC complex spheroids viability;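 note: spheroids exposed to the agents for seven days before readout; percent viability relative to DMSO vehicle control wells = 100%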
- MEASUREMENT DESCRIPTION: Anticancer human tumor 299254-011-R-J1-PDC patient-derived melanoma cell line growth inhibition [GQUAD]
- CONDITION INFO: second compound 3.16 µM; first compound 0.00316 µM; stronger effect = lower value
PROPERTY LABEL: viability, T/C (%)

molecule="CCc1c2c(nc3ccc(O)cc13)-c1cc3c(c(=O)n1C2)COC(=O)[C@]3(O)CC + CN(C)c1ccc(Nc2c3ccc(NC(=O)CCN4CCCC4)cc3nc3cc(NC(=O)CCN4CCCC4)ccc23)cc1" property_label="viability, T/C" unit_of_measurement=% val=112
molecule="Cn1ncnc1[C@H]1c2n[nH]c(=O)c3cc(F)cc(c23)N[C@@H]1c1ccc(F)cc1 + CN(C)c1ccc(Nc2c3ccc(NC(=O)CCN4CCCC4)cc3nc3cc(NC(=O)CCN4CCCC4)ccc23)cc1" property_label="viability, T/C" unit_of_measurement=% val=98.2
molecule="CCc1c2c(nc3ccc(O)cc13)-c1cc3c(c(=O)n1C2)COC(=O)[C@]3(O)CC + Cc1[nH]c2ccc(F)cc2c1-c1nc2c3cccnc3c3ncccc3c2[nH]1" property_label="viability, T/C" unit_of_measurement=% val=114
molecule="CC[C@@]1(O)C(=O)OCc2c1cc1n(c2=O)Cc2cc3c(CN(C)C)c(O)ccc3nc2-1 + Cc1cnc(CNC(=O)c2c(=O)c3ccc(N4CCCN(C)CC4)nc3n3c2sc2ccccc23)cn1" property_label="viability, T/C" unit_of_measurement=% val=70.7
molecule="CCc1c2c(nc3ccc(O)cc13)-c1cc3c(c(=O)n1C2)COC(=O)[C@]3(O)CC + Cc1cnc(CNC(=O)c2c(=O)c3ccc(N4CCCN(C)CC4)nc3n3c2sc2ccccc23)cn1" property_label="viability, T/C" unit_of_measurement=% val=68
molecule="Cc1[nH]c2ccccc2c1CCNCc1ccc(/C=C/C(=O)NO)cc1 + Cc1[nH]c2ccc(F)cc2c1-c1nc2c3cccnc3c3ncccc3c2[nH]1" property_label="viability, T/C" unit_of_measurement=% val=79.2
molecule="Cn1ncnc1[C@H]1c2n[nH]c(=O)c3cc(F)cc(c23)N[C@@H]1c1ccc(F)cc1 + Cc1cnc(CNC(=O)c2c(=O)c3ccc(N4CCCN(C)CC4)nc3n3c2sc2ccccc23)cn1" property_label="viability, T/C" unit_of_measurement=% val=82.3
molecule="Cc1[nH]c2ccccc2c1CCNCc1ccc(/C=C/C(=O)NO)cc1 + CN(C)c1ccc(Nc2c3ccc(NC(=O)CCN4CCCC4)cc3nc3cc(NC(=O)CCN4CCCC4)ccc23)cc1" property_label="viability, T/C" unit_of_measurement=% val=110
molecule="CC[C@@]1(O)C(=O)OCc2c1cc1n(c2=O)Cc2cc3c(CN(C)C)c(O)ccc3nc2-1 + CN(C)c1ccc(Nc2c3ccc(NC(=O)CCN4CCCC4)cc3nc3cc(NC(=O)CCN4CCCC4)ccc23)cc1" property_label="viability, T/C" unit_of_measurement=% val=97
molecule="CC[C@@]1(O)C(=O)OCc2c1cc1n(c2=O)Cc2cc3c(CN(C)C)c(O)ccc3nc2-1 + Cc1[nH]c2ccc(F)cc2c1-c1nc2c3cccnc3c3ncccc3c2[nH]1" property_label="viability, T/C" unit_of_measurement=% val=116
molecule="Cn1ncnc1[C@H]1c2n[nH]c(=O)c3cc(F)cc(c23)N[C@@H]1c1ccc(F)cc1 + Cc1[nH]c2ccc(F)cc2c1-c1nc2c3cccnc3c3ncccc3c2[nH]1" property_label="viability, T/C" unit_of_measurement=% val=88.2
molecule="Cc1[nH]c2ccccc2c1CCNCc1ccc(/C=C/C(=O)NO)cc1 + Cc1cnc(CNC(=O)c2c(=O)c3ccc(N4CCCN(C)CC4)nc3n3c2sc2ccccc23)cn1" property_label="viability, T/C" unit_of_measurement=% val=77.7
